Reported t/2 by item:
Tested on: ribosomes
measurement.description: in vitro activity: binding to free ribosomes, VS1 fluorescence with erythromycin displacement
experimental.context: in vitro Activity of VM1-Ester Derivatives; together with VS1, fluorescence
Quick reminder: number only, in s, skip the unit.

Inquiry: Consider the molecule shown here: `CC1=C\[C@@H](O)CC(=O)Cc2nc(co2)C(=O)N2CCC=C2C(=O)O[C@H](C(C)C)[C@H](C)/C=C/C(=O)NC\C=C\1` What is its recorded t/2?
Reply text: 10.2

Inquiry: How about this molecule: `CC1=C\[C@@H](O)CC(=O)Cc2nc(co2)C(=O)N2CC[C@@H](SCC(=O)OCC(Cl)(Cl)Cl)[C@@H]2C(=O)O[C@H](C(C)C)[C@H](C)/C=C/C(=O)NC\C=C\1`
Reply text: 35.6

Inquiry: How about this molecule: `CC1=C\[C@@H](O)CC(=O)Cc2nc(co2)C(=O)N2CC[C@@H](SCCC(=O)OCC(Cl)(Cl)Cl)[C@@H]2C(=O)O[C@H](C(C)C)[C@H](C)/C=C/C(=O)NC\C=C\1`
Reply text: 32.7

Inquiry: How about this molecule: `CC1=C\[C@@H](O)CC(=O)Cc2nc(co2)C(=O)N2CC[C@@H](SCCCCC(=O)OCC(Cl)(Cl)Cl)[C@@H]2C(=O)O[C@H](C(C)C)[C@H](C)/C=C/C(=O)NC\C=C\1`
Reply text: 34.1

Inquiry: How about this molecule: `CC1=C\[C@@H](O)CC(=O)Cc2nc(co2)C(=O)N2CC[C@H](SCCC(=O)OCC(Cl)(Cl)Cl)[C@H]2C(=O)O[C@H](C(C)C)[C@H](C)/C=C/C(=O)NC\C=C\1`
Reply text: 721
